# Tested on: OVCAR-8 ovarian
# experiment: NCI tumour cell line growth inhibition, 48 h
# TGI listing for each entry below

The following compounds have reported results that may help.
CCOC(=O)c1c2c(n(Cc3ccccc3)c1C)-c1ccccc1C(=O)C2=O ... 43.7 µM
COC(=O)C1C(OC(=O)C(Cl)(c2ccccc2)c2ccccc2)CC2CCC1N2C (stereo unspecified) ... > 100 µM
Fc1ccc(OCc2nc3cc(C(F)(F)F)ccc3nc2-c2ccccc2)cc1 ... > 100 µM
O=C1c2ccccc2-c2c1c(-c1ccc([N+](=O)[O-])cc1)nc1ccc3ccccc3c21 ... > 100 µM
O=c1oc2nc(-c3ccccc3)cc(C(F)(F)F)c2n1Cc1ccccc1 ... > 100 µM

Now for another entry.
[ask] Look up TGI for this compound: CC(=O)OC/C=C/Cn1ncc(=O)[nH]c1=O
[reply] > 100 µM

====

In this section we review reported TGI values for a set of compounds.
# Test system: HOP-92 NSCLC
# experiment: NCI tumour cell line growth inhibition, 48 h

CSCCC(N)P(C)(=O)O (stereo unspecified) ... > 100 µM
CC(=O)c1cc2c(cc1Nc1c3ccccc3nc3occ(Cl)c13)OCO2 ... > 100 µM
O=C(c1ccccc1)c1ccc(OCCOc2ccc(Nc3ccccc3)cc2)cc1 ... 73.5 µM
CC(=O)Nc1sc([N+](=O)[O-])cc1S(=O)(=O)c1ccc(Cl)cc1 ... 12.7 µM
Cc1nn(C(=O)c2ccc(Cl)cc2)c2c1C(c1cccc([N+](=O)[O-])c1)SC(N)=N2 (stereo unspecified) ... > 10 µM
O=c1c2ccccc2n2n1CC(O)C2 (stereo unspecified) ... > 100 µM
O=C(O)c1ccccc1CC1Cc2ccc3c(c2C1=O)CCC3 (stereo unspecified) ... > 100 µM
c1ccc(C2SCc3nc4cc5ccccc5cc4n32)cc1 (stereo unspecified) ... > 100 µM
CN(Cc1cnc2nc(N)nc(N)c2n1)c1ccc(C(=O)NCS(=O)(=O)O)cc1 ... > 100 µM
O=C(Nc1cccc(Oc2nnc(Cl)c3ccccc23)c1)Nc1ccc(Cl)c(C(F)(F)F)c1 ... 1.96 µM

Next:
[ask] Look up TGI: N/C(=N\N=C\c1c[nH]c2cc(C(F)(F)F)ccc2c1=O)NO
[reply] > 10 µM

====

# Test system: A549 NSCLC
# experiment: NCI tumour cell line growth inhibition, 48 h
# TGI per record follows

COC(=O)C1=C(C(=O)OC)C23CC1C1C(C(=O)OC)=C(C(=O)OC)C12C1C=CC3C2C(=O)OC(=O)C21 (stereo not given) ... > 100 µM
O=C(Nc1ccc(Oc2ccc3nc(NC(=O)c4ccccc4)[nH]c3c2)cc1)Nc1cc(C(F)(F)F)ccc1F ... 13.3 µM
C/C(=C\C1=C(Cl)C(=O)c2ccccc2C1=O)C(=O)O ... 43 µM
CCCCOC(=O)NC(Nc1ccc(S(=O)(=O)Nc2ccc(OC)nn2)cc1)(C(F)(F)F)C(F)(F)F ... > 100 µM

Below: the item to evaluate.
[ask] Form field: reported TGI of CC1CCN(CCCCCOc2ccc3oc4cc(Cl)ccc4c(=O)c3c2)CC1
[reply] 14.4 µM

====

# Tested on: PC-3 prostate
# experiment: NCI tumour cell line growth inhibition, 48 h; in the data active = GI50 below about 0.43 µM; inactive = the rest
Hi there, use one of these labels in your reply, thanks! t (active), f (inactive)

Cc1cnc(/C=N\NC(N)=S)c2cccc(N)c12 ... f
O=[N+]([O-])c1ccc2c(N3CCC(CCCC4CCN(c5ncnc6cc([N+](=O)[O-])ccc56)CC4)CC3)ncnc2c1 ... f
CC[C@H](Nc1nc(N)nc(C)c1C#N)c1nc2cccc(NCc3ccc(C(=O)NO)cc3)c2c(=O)n1-c1ccccc1 ... f
CCOC(=O)c1c2c(n(Cc3ccccc3)c1C)-c1ccccc1C(=O)C2=O ... f
N#Cc1ccc(N2Cc3ccccc3OC3=C2C(=O)c2c(O)ccc(O)c2C3=O)cc1 ... t
O=C(CF)N(O)c1ccc(/C=C/c2ccccc2)cc1 ... f
C[C@@H]1CC[C@@H]2[C@@H]1[C@H](OC(=O)/C=C/c1ccccc1)[C@]1(C3CCCCC3)C[C@@H](NC(=O)CO)[C@@]2(C)O1 ... f
CC(C)(C#N)c1cc(F)cc(C(=O)Nc2cc(Nc3ncccc3-c3ncnc4nc[nH]c34)ccc2F)c1 ... f

[ask] Given O=C(Nc1ccc(Oc2ccc3nc(NC(=O)c4ccccc4)[nH]c3c2)cc1)Nc1cc(C(F)(F)F)ccc1F , state the outcome it received in this test.
[reply] f

[ask] Record request — test call for O=C(c1ccco1)c1nc2cc(F)ccc2[n+]([O-])c1C(F)(F)F
[reply] f

[ask] Dear colleague, could you share the recorded outcome for C=CC(C=O)C1(O)CCOC(=O)/C1=C\N (stereo unspecified) when you have a moment?
[reply] f

[ask] Short answer needed: outcome of this test for COC(=O)c1ccc(NC(=O)Nc2ccc3oc(=O)c4ccccc4c3c2)cc1 ?
[reply] f

[ask] GET /call?item= COc1ccc2c(c1)C(=O)c1c-2c(Nc2ccc(C(C)=O)cc2)nc2ccccc12 returns the recorded outcome of this test.
[reply] f

[ask] Assay outcome for CC(=O)O[C@H](C[C@H](C(C)C)N(C)C(=O)[C@@H](NC(=O)[C@H]1CCCCN1C)C(C)C)c1nc(C(=O)N[C@@H](Cc2ccccc2)C[C@H](C)C(=O)O)c(C(C)C)s1 : what was it?
[reply] t

[ask] Can you look up the reported call for CCOC(=O)C1=C(C)NC2SC(=O)/C(=C\c3ccccc3O)N2C1c1ccccc1 (stereo unspecified) for me?
[reply] f

[ask] Per the records of this test, what outcome belongs to CN(C)CCOc1ccc(/C(=C(/CCCl)c2ccccc2)c2ccccc2)cc1 ?
[reply] f

Data origin, for the record: PubChem BioAssay (NCI)
